- protocolDescription: Plasma concentration in cynomolgus-CETP transgenic mouse at 1 mg/kg, po measured after 4 hrs
- Assay type: ADME, organism-based
measurementKind: concentration at 4 h (nM)

[[record]]
molecule = "COc1ccc(-c2ccc(C(=O)O)cc2C)cc1-c1ccc(C(F)(F)F)nc1CN1C(=O)N[C@H](c2cc(C(F)(F)F)cc(C(F)(F)F)c2)[C@@H]1C"
measurementkind = "concentration at 4 h"
endpointresult = 830

[[record]]
molecule = "COc1ncc(-c2ccc(C(=O)O)cc2C)cc1-c1ccc(C(F)(F)F)nc1CN1C(=O)N[C@H](c2cc(C(F)(F)F)cc(C(F)(F)F)c2)[C@@H]1C"
measurementkind = "concentration at 4 h"
endpointresult = 1260


1. COc1ccc(-c2ccc(C(=O)O)cc2C)cc1-c1ccc(C(F)(F)F)cc1CN1C(=O)N[C@H](c2cc(C(F)(F)F)cc(C(F)(F)F)c2)[C@@H]1C
2. COc1ncc(-c2c(C)cc(C(=O)NC3(C#N)CC3)cc2C)cc1-c1ccc(C(F)(F)F)cc1[C@@H]1CC[C@H]2[C@@H](c3cc(C(F)(F)F)cc(C(F)(F)F)c3)NC(=O)N12
Compare reported concentration at 4 h values for 1 and 2 . Which is lower? To answer, give the label that identifies your chosen option.
1
